Where do the numbers come from? From PubChem BioAssay AID1259407.

System: CCRIS mutagenicity, Ames/micronucleus/aberration tests
Assay Protocol: CCRIS mutagenicity studies
Condition Notes: Test System: AMES SALMONELLA TYPHIMURIUM; Strain/Indicator: TA100; Metabolic Activation: RAT LIVER S-9, PHENOBARBITAL AND BETA-NAPHTHOFLAVONE; Method: PREINCUBATION
The source made the active and inactive calls. The rule behind the calls is not given here.
Response enum: active, inactive

Worked examples, 8 compounds total:
# Compound Structure, Discrete Label
records = [
    ("C=CCOC(=O)c1ccccc1C(=O)OCC=C", "inactive"),
    ("C=CC(=O)O", "inactive"),
    ("O=C(Cl)c1ccc(Cl)cc1", "inactive"),
    ("Cc1cnc[nH]1", "inactive"),
    ("COc1cc(-c2ccc(N)c(OC)c2)ccc1N", "inactive"),
    ("Cc1ccc(S(=O)(=O)NN)cc1", "active"),
    ("CCC(=O)O", "inactive"),
    ("Nc1cc(Cl)ccc1[N+](=O)[O-]", "inactive"),
]

Now consider the entry below.
Exercise: Recorded test outcome, item `O`
Solution: inactive
